Assay: n-Octanol-water partition coefficient, logP of the compound at 1 mg and measured after 2 hrs by HPLC analysis
Type: physicochemical
VALUE_TYPE: logP at 2 h

Use the examples below as a reference point.
COMPOUND	VALUE_TYPE	EXPERIMENTAL_VALUE
O=c1c(O)c(-c2ccc(O)c(OCc3cn(C[C@H]4O[C@@H](O)[C@H](O)[C@@H](O)[C@@H]4O)nn3)c2)oc2cc(OCc3cn(C[C@H]4O[C@@H](O)[C@H](O)[C@@H](O)[C@@H]4O)nn3)cc(O)c12	logP at 2 h	-1.12
O=c1c(O)c(-c2ccc(O)c(O)c2)oc2cc(O)cc(O)c12 [QUERCETIN]	logP at 2 h	1.38

Inquiry: Could you tell me which logP at 2 h is on file for O=c1c(O)c(-c2ccc(O)c(O)c2)oc2cc(OCc3cn(C[C@H]4O[C@@H](O)[C@H](O)[C@@H](O)[C@@H]4O)nn3)cc(O)c12 ?
Reply text: -0.23

----------
Entries and their remaining at 48 h
Experiment: Stability of compound in phosphate buffer assessed as parent compound remaining after 48 hrs by HPLC analysis
Assay type: physicochemical
Conditions: read-out: Stability
Write down the numeric answer in % and omit the unit.

MOLECULE	UNIT_SPEC	EXPERIMENTAL_VALUE
O=c1c(O)c(-c2ccc(O)c(OCc3cn(C[C@H]4O[C@@H](O)[C@H](O)[C@@H](O)[C@@H]4O)nn3)c2)oc2cc(OCc3cn(C[C@H]4O[C@@H](O)[C@H](O)[C@@H](O)[C@@H]4O)nn3)cc(O)c12	%	81.5
O=c1c(O)c(-c2ccc(O)c(O)c2)oc2cc(O)cc(O)c12 [QUERCETIN]	%	11.2

For the next question, use this molecule.
Inquiry: Could you tell me which remaining at 48 h is on file for O=c1c(O)c(-c2ccc(O)c(O)c2)oc2cc(OCc3cn(C[C@H]4O[C@@H](O)[C@H](O)[C@@H](O)[C@@H]4O)nn3)cc(O)c12 ?
Reply text: 73.2
